Each record here notes measured cytotoxicity at 70.5 h.
experiment: Human HepG2 cell viability assay in 384 well format; format: toxicity, cell-based; parameters: dose 125 nL, time 70.5 hour; concentration not given beside the values; conditions: HepG2 cells, read-out: Inhibition

See these solved cases before continuing.
CCOc1c(Br)cc(/C=C/c2ncc(C(=O)O)s2)cc1OC    -11.1%
CCc1cccc(OC2CN(C(=O)[C@@H](N)CCSC)C2)c1    -1.91%
CC(C)Cc1cc(C(=O)N2CCC(C(=O)N3CCOCC3)CC2)on1    -7.8%
CN(C)c1ncc(CNC(=O)Nc2ccccc2F)n1C    -1.14%

input: Query (compound): `COc1ccc(-c2cc(CN)ccc2F)c(OC)c1OC` ; field requested: cytotoxicity at 70.5 h
output: 6.26%

input: Query (compound): `COc1ccnc(N(C)Cc2ccccc2O)n1` ; field requested: cytotoxicity at 70.5 h
output: 1.42%

input: Query (compound): `CC(=O)N1[C@@H](C(=O)NCC2CC2)C[C@@H]2CN(Cc3nccs3)C[C@@H]21` ; field requested: cytotoxicity at 70.5 h
output: -9.23%

input: Query (compound): CC[C@H](C)[C@@H](CO)NC(C)Cc1ccc(Cl)cc1 (stereo partly specified) ; field requested: cytotoxicity at 70.5 h
output: -2.7%

input: Query (compound): Cc1ccc(CN2CCCC(c3nn(C)c4nccnc34)C2)s1 (stereo unspecified) ; field requested: cytotoxicity at 70.5 h
output: 9.04%

input: Query (compound): `N[C@H]1CC[C@@H](CN2CCCn3nc(CNC(=O)C4CCC4)cc3C2)CC1` ; field requested: cytotoxicity at 70.5 h
output: -9.19%

input: Query (compound): `CN(C(=O)Cc1cccs1)C1CCN(c2ccccn2)CC1` ; field requested: cytotoxicity at 70.5 h
output: -5.49%
